Source: a melting point compilation (Tetko et al.; mined from patent text by program, amines drawn as free bases though some values may be those of a salt)

readout.kind: melting point

Requested field: melting point. Item: CN(C)C=Nc1[nH]nc(N2CCOCC2)c1C#N
182 to 183 °C

Requested field: melting point. Item: Cc1ccc(C(O)(c2ccc(C)cc2)[C@H](C)n2ccnc2)cc1
194 to 196 °C

----------
readout.kind: melting point

- compound: "Cc1cc(Br)cc(C(=O)c2[nH]c(=O)[nH]c(=O)c2C(C)C)c1"
  melting point: "266 to 267 °C"
- compound: "Cc1cc(C(O)c2ccccc2)sc1C (stereo not given)"
  melting point: "79 to 80 °C"
- compound: "Oc1cc(-c2ccc(F)cc2)nc(-c2ccccn2)n1"
  melting point: "197 to 198 °C"
- compound: "CN(C)CCCNC(=O)c1ccc(-c2ccc3nnn(Cc4ccc5ncccc5c4)c3n2)cc1"
  melting point: "132 to 135 °C"
- compound: "C(#Cc1ccc2[nH]ccc2c1)CCN1CCC(Cc2ccccc2)CC1"
  melting point: "165 to 166 °C"

Requested field: melting point. Item: O=C(NC(=S)c1c(Cl)cccc1Cl)Nc1ccc(Cl)c(Cl)c1
168 °C

Requested field: melting point. Item: CC(=O)c1cc(C#N)c(OCc2ccccc2)nc1C
94 to 99 °C

Requested field: melting point. Item: CCC1(N2C(=O)c3c(F)c(F)c(F)c(F)c3C2=O)C(=O)NC(=O)N(c2ccccc2)C1=O (stereo not given)
218 to 220 °C

Requested field: melting point. Item: Cc1c(C2CCC(c3ccccc3)(N(C)C)CC2)[nH]c2ccc(OC(F)(F)F)cc12 (stereo not given)
219 to 221 °C

Requested field: melting point. Item: CCCCCCCCCCOCCCCCCCSCCCO
28 to 32 °C

Requested field: melting point. Item: O=C1NCCc2c1c1ccccc1n2COCc1ccccc1
133 to 135 °C

Requested field: melting point. Item: CC/C(=C(\c1ccc(/C=C/C(=O)O)cc1)c1ccc(OC(=O)CN(C)C)cc1)c1ccccc1
206 to 208 °C

Requested field: melting point. Item: CCOc1nn(-c2c(Cl)cc(C(F)(F)F)cc2Cl)c(N)c1-c1cccc(C(F)(F)F)c1
77 to 78 °C

Requested field: melting point. Item: c1ccc(N2CNCC23CCN(C2CCc4ccccc42)CC3)cc1 (racemic)
> 250 °C

Requested field: melting point. Item: C[C@H](Cc1ccc2c(c1)OC(C(=O)O)(C(=O)OCCc1ccccc1)O2)NC[C@H](O)c1cccc(Cl)c1 (stereo not given in full)
75 to 82 °C

Requested field: melting point. Item: COc1cc(OC)c2c(=O)[nH]c(-c3cc(C)c(OCC(C)(C)O)c(C)c3)cc2c1
252 to 254 °C

Requested field: melting point. Item: Cc1cc(Oc2cccc(C#N)n2)n(C)n1
95 °C

Requested field: melting point. Item: CCCCN1CCC(CNC(=O)c2cc(Cl)cc3c2OCCO3)C(O)C1 (stereo not given)
112 °C

Requested field: melting point. Item: Nc1cc(-n2cc(C(=O)O)c(=O)c3cc(F)c(N4CC(N)C4)c(Cl)c32)ncc1F
280 °C

Requested field: melting point. Item: COC(CN(C)C(=O)Nc1ccc(Oc2cccc(C(F)(F)F)c2)cc1)OC
86 to 88 °C

Requested field: melting point. Item: O=S(=O)(Oc1cccc(OS(=O)(=O)C(F)(F)F)c1OS(=O)(=O)C(F)(F)F)C(F)(F)F
47.5 to 48.5 °C
